FYI, the data here is from patent US7816522B2.

# Measured On: human clotting factor VIIa (Homo sapiens, UniProt P08709)
# Sequence (P08709 213-466 limits assumed): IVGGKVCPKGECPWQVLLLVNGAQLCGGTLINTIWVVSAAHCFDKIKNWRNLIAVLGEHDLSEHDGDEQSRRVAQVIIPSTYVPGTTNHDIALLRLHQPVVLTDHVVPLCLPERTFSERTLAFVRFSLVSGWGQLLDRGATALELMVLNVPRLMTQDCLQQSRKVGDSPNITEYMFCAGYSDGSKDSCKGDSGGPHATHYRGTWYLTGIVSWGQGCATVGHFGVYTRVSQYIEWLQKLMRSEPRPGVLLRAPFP
# Sequence (P08709 61-212 limits assumed): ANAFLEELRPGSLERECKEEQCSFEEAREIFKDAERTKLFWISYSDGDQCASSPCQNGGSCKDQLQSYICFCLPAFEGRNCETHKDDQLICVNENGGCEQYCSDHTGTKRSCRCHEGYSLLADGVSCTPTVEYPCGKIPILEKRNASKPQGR
# Sequence (P13726 33-295 partner): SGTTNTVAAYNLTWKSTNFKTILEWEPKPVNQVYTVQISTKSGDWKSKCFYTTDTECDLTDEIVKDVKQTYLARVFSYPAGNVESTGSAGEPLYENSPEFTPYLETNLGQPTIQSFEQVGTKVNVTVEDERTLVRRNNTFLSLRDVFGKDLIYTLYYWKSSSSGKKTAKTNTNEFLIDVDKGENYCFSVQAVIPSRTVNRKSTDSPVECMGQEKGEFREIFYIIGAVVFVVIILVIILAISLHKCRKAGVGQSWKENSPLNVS
Please assign NOT MET whenever IC50 is at or above 8 nM, and MET whenever it is below.

Ask: Strictly below 8 nM in IC50? C=CCOc1cc(C(Nc2ccc(C(=N)N)cc2)c2nn(-c3ncccn3)c(=O)[nH]2)ccc1OC (racemic) [Example 118, acetate]
Reply: MET

Ask: Strictly below 8 nM in IC50? COCCOc1cc(OC)cc(C(Nc2ccc(C(=N)N)cc2)c2nn(-c3ncccc3N)c(=O)[nH]2)c1F (racemic) [Example 203, acetate]
Reply: NOT MET

Ask: Strictly below 8 nM in IC50? COc1cc(C(Nc2ccc(C(=N)N)cc2)c2nn(-c3ncccn3)c(=O)[nH]2)cc(F)c1OC (racemic) [Example 116, acetate]
Reply: NOT MET

Ask: Strictly below 8 nM in IC50? COc1cc(OCC#N)c(F)c(C(Nc2ccc(C(=N)N)cc2)c2nn(-c3cccnn3)c(=O)[nH]2)c1 (racemic) [Example 148, acetate]
Reply: NOT MET

Ask: Strictly below 8 nM in IC50? COc1cc(OCCF)c(F)c(C(Nc2ccc(C(=N)N)cc2)c2nn(-c3cccnc3N)c(=O)[nH]2)c1 (racemic) [Example 50, diacetate]
Reply: MET

Ask: Strictly below 8 nM in IC50? CCOc1cc(OCCO)c(F)c(C(Nc2ccc(C(=N)N)cc2)c2nn(-c3ncccn3)c(=O)[nH]2)c1 (racemic) [Example 219, acetate]
Reply: NOT MET

----------
Kindly state IC50 for each of the entries shown.
# Measured On: human clotting factor VIIa (Homo sapiens)
Note: unit nM is implicit; provide only the numeric part.

Ask: Which IC50 is listed for COc1cc(C(Nc2ccc(C(=N)N)cc2)c2nn(-c3ncccc3N)c(=O)[nH]2)cc(C)n1 (racemic) [Example 19, acetate] ?
Reply: 12.8

Ask: Which IC50 is listed for COc1cc(C(Nc2ccc(C(=N)N)cc2)c2nn(-c3ncccc3N)c(=O)[nH]2)c(F)c2c1OCC2 (racemic) [Example 52, diacetate] ?
Reply: 5.2

Ask: Which IC50 is listed for COc1cc(C(Nc2ccc(C(=N)N)cc2)c2nn(-c3ncsc3C(=O)O)c(=O)[nH]2)cc2c1OCCCO2 (single isomer, unassigned) ?
Reply: 10.1

Ask: Which IC50 is listed for COc1cc(OCCF)c(F)c(C(Nc2ccc(C(=N)N)cc2)c2nn(-c3cccc(N)n3)c(=O)[nH]2)c1 (racemic) [Example 174, acetate] ?
Reply: 1.8

Ask: Which IC50 is listed for COc1cc(C(Nc2ccc(C(=N)N)cc2)c2nn(-c3ncccn3)c(=O)[nH]2)cc2c1OCCC2 (racemic) [Example 24, acetate] ?
Reply: 7.4

Ask: Which IC50 is listed for COc1cc(OCC(=O)N(C)C)cc(C(Nc2ccc(C(=N)N)cc2)c2nn(-c3ncccn3)c(=O)[nH]2)c1 (racemic) [Example 62, acetate] ?
Reply: 24.4

Ask: Which IC50 is listed for COc1cc(OCCF)c(F)c(C(Nc2ccc(C(=N)N)cc2)c2nn(-c3ncccc3N)c(=O)[nH]2)c1 (racemic) [Example 136, acetate] ?
Reply: 5.1

Ask: Which IC50 is listed for COCCOc1cc(C)cc(C(Nc2ccc(C(=N)N)cc2)c2nn(-c3ncccn3)c(=O)[nH]2)c1 (racemic) [Example 94, acetate] ?
Reply: 12.7

Ask: Which IC50 is listed for COc1ccc(C(Nc2ccc(C(=N)N)cc2)c2nn(-c3ccsc3C(=O)O)c(=O)[nH]2)cc1OC (racemic) [Example 155, acetate] ?
Reply: 2.3

Ask: Which IC50 is listed for COc1cc(C(Nc2ccc(C(=N)N)cc2)c2nn(-c3ncccc3N)c(=O)[nH]2)cc2c1OCCCO2 (racemic) [Example 34, acetate] ?
Reply: 3

Ask: Which IC50 is listed for COc1cc(C(Nc2ccc(C(=N)N)cc2)c2nn(-c3ncccn3)c(=O)[nH]2)cc(C)n1 (racemic) [Example 39, acetate] ?
Reply: 20.6

Ask: Which IC50 is listed for COc1cc(OCCCO)c(F)c(C(Nc2ccc(C(=N)N)cc2)c2nn(-c3[nH]ncc3C(=O)O)c(=O)[nH]2)c1 (stereo not shown) [Example 177, acetate] ?
Reply: 27.6

Ask: Which IC50 is listed for COCc1cc(OC)cc(C(Nc2ccc(C(=N)N)cc2)c2nn(-c3ncccn3)c(=O)[nH]2)c1 (racemic) [Example 10, acetate] ?
Reply: 21.1

Ask: Which IC50 is listed for CCOc1cc(C(Nc2ccc(C(=N)N)cc2)c2nn(-c3ncccc3OC)c(=O)[nH]2)ccc1OCC(=O)NC (stereo not shown) [Example 126, acetate] ?
Reply: 10.9

Ask: Which IC50 is listed for COc1cc(C(Nc2ccc(C(=N)N)cc2)c2nn(-c3ncccc3F)c(=O)[nH]2)cc2c1OCC2 (racemic) [Example 123, acetate] ?
Reply: 4.6

Ask: Which IC50 is listed for COc1ccc(C(Nc2ccc(C(=N)N)c(F)c2)c2nn(-c3ccccc3C(=O)O)c(=O)[nH]2)cc1OC (racemic) [Example 37, acetate] ?
Reply: 4.4

Ask: Which IC50 is listed for COc1cc(OCF)cc(C(Nc2ccc(C(=N)N)cc2)c2nn(-c3ncccn3)c(=O)[nH]2)c1 (racemic) [Example 104, acetate] ?
Reply: 8.9

Ask: Which IC50 is listed for CCc1cc(OCCN(C)C)c(F)c(C(Nc2ccc(C(=N)N)cc2)c2nn(-c3ccccn3)c(=O)[nH]2)c1 (stereo not shown) [Example 140, bistrifluoroacetate] ?
Reply: 5.3

Ask: Which IC50 is listed for CCc1cc(OCCCO)c(F)c(C(Nc2ccc(C(=N)N)cc2)c2nn(-c3ncccc3N)c(=O)[nH]2)c1 (stereo not shown) [Example 204, acetate] ?
Reply: 2.7

Ask: Which IC50 is listed for COc1cc(C(Nc2ccc(C(=N)N)cc2)c2nn(-c3ccsc3C(=O)O)c(=O)[nH]2)cc(OC)c1OC (racemic) ?
Reply: 4.5

Ask: Which IC50 is listed for COc1cc(C(Nc2ccc(C(=N)N)cc2)c2nn(-c3ncccc3N)c(=O)[nH]2)cc2c1OCOC2 (stereo not shown) [Example 57, acetate] ?
Reply: 8.9

Ask: Which IC50 is listed for COc1cc(C(Nc2ccc(C(=N)N)cc2)c2nn(-c3ncccn3)c(=O)[nH]2)c(F)c2c1OCC2 (racemic) [Example 161, acetate] ?
Reply: 9

Ask: Which IC50 is listed for C=Cc1cc(OCCO)cc(C(Nc2ccc(C(=N)N)cc2)c2nn(-c3ncccn3)c(=O)[nH]2)c1 (racemic) [Example 46, acetate] ?
Reply: 3.8

Ask: Which IC50 is listed for COc1ccc(C(Nc2ccc(C(=N)N)cc2)c2nn(-c3ccccc3C(N)=O)c(=O)[nH]2)cc1OC (racemic) [Example 110, acetate] ?
Reply: 6.6

Ask: Which IC50 is listed for COc1cc(C(Nc2ccc(C(=N)N)cc2)c2nn(-c3ncccc3F)c(=O)[nH]2)cc2c1OCCC2 (racemic) [Example 29, acetate] ?
Reply: 2.7

----------
Kindly state IC50 for each of the entries shown.

Ask: Record N=C(N)c1ccc(NC(c2nn(-c3ncccn3)c(=O)[nH]2)c2cc(OCCF)cc(OCCF)c2F)cc1 (racemic) [Example 98, acetate] : what is its IC50 with human clotting factor VIIa (Homo sapiens, UniProt P08709)?
Reply: 0.0287 µM

Ask: Record COc1cc(C(Nc2ccc(C(=N)N)cc2)c2nn(-c3ncccn3)c(=O)[nH]2)cc(OCCO)c1OC (racemic) [Example 159, acetate] : what is its IC50 with human clotting factor VIIa (Homo sapiens, UniProt P08709)?
Reply: 0.0117 µM

Ask: Record COc1cc(C(Nc2ccc(C(=N)N)cc2)c2nn(-c3ncccn3)c(=O)[nH]2)cc(C(C)O)c1OC (stereo not drawn) [Example 25, acetate] : what is its IC50 with human clotting factor VIIa (Homo sapiens, UniProt P08709)?
Reply: 0.0151 µM

Ask: Record CCOc1cc(OCCF)c(F)c(C(Nc2ccc(C(=N)N)cc2)c2nn(-c3cccnn3)c(=O)[nH]2)c1 (racemic) [Example 70, acetate] : what is its IC50 with human clotting factor VIIa (Homo sapiens, UniProt P08709)?
Reply: 0.0049 µM

Ask: Record COc1cc(F)c(C(Nc2ccc(C(=N)N)cc2)c2nn(-c3[nH]ncc3C(=O)O)c(=O)[nH]2)cc1OC (racemic) [Example 194, acetate] : what is its IC50 with human clotting factor VIIa (Homo sapiens, UniProt P08709)?
Reply: 0.0745 µM

Ask: Record COc1cc(F)c(C(Nc2ccc(C(=N)N)cc2)c2nn(-c3cccnn3)c(=O)[nH]2)cc1OC (racemic) [Example 119, acetate] : what is its IC50 with human clotting factor VIIa (Homo sapiens, UniProt P08709)?
Reply: 0.007 µM
